assay.overview: Cytotoxicity against human HCT116 cells at 50 uM after 48 hrs by MTT assay
Format: functional
test.context: HCT-116, 48 h, read-out: GI
assay.readout: inhibition of growth at 50 µM

Please fill in: inhibition of growth at 50 µM reported for C[C@H]1[C@H](C)CC[C@]2(C(=O)O)CC[C@]3(C)C(=CC[C@@H]4[C@@]5(C)C/C(=C\c6cccc(Cl)c6)C(=O)C(C)(C)[C@@H]5CC[C@]43C)[C@H]12 = 90%

Please fill in: inhibition of growth at 50 µM reported for C[C@H]1[C@H](C)CC[C@]2(C(=O)O)CC[C@]3(C)C(=CC[C@@H]4[C@@]5(C)C/C(=C\c6ccccc6)C(=O)C(C)(C)[C@@H]5CC[C@]43C)[C@H]12 = 95%

Please fill in: inhibition of growth at 50 µM reported for C[C@H]1[C@H](C)CC[C@]2(C(=O)O)CC[C@]3(C)C(=CC[C@@H]4[C@@]5(C)C/C(=C\c6ccc(Br)cc6)C(=O)C(C)(C)[C@@H]5CC[C@]43C)[C@H]12 = 53%

Please fill in: inhibition of growth at 50 µM reported for C[C@H]1[C@H](C)CC[C@]2(C(=O)O)CC[C@]3(C)C(=CC[C@@H]4[C@@]5(C)C/C(=C\c6ccc(O)cc6)C(=O)C(C)(C)[C@@H]5CC[C@]43C)[C@H]12 = 99%

Please fill in: inhibition of growth at 50 µM reported for COc1cccc(/C=C2\C[C@]3(C)[C@H]4CC=C5[C@@H]6[C@@H](C)[C@H](C)CC[C@]6(C(=O)O)CC[C@@]5(C)[C@]4(C)CC[C@H]3C(C)(C)C2=O)c1 = 65%

Please fill in: inhibition of growth at 50 µM reported for COc1cc(/C=C2\C[C@]3(C)[C@H]4CC=C5[C@@H]6[C@@H](C)[C@H](C)CC[C@]6(C(=O)O)CC[C@@]5(C)[C@]4(C)CC[C@H]3C(C)(C)C2=O)cc(OC)c1OC = 99%

Please fill in: inhibition of growth at 50 µM reported for C[C@H]1[C@H](C)CC[C@]2(C(=O)O)CC[C@]3(C)C(=CC[C@@H]4[C@@]5(C)C/C(=C\c6ccc([N+](=O)[O-])cc6)C(=O)C(C)(C)[C@@H]5CC[C@]43C)[C@H]12 = 95%

Please fill in: inhibition of growth at 50 µM reported for O=c1[nH]cc(F)c(=O)[nH]1 [FLUOROURACIL] = 79%

Please fill in: inhibition of growth at 50 µM reported for C[C@H]1[C@H](C)CC[C@]2(C(=O)O)CC[C@]3(C)C(=CC[C@@H]4[C@@]5(C)C/C(=C\c6cc(O)ccc6O)C(=O)C(C)(C)[C@@H]5CC[C@]43C)[C@H]12 = 99%

Please fill in: inhibition of growth at 50 µM reported for COc1ccccc1/C=C1\C[C@]2(C)[C@H]3CC=C4[C@@H]5[C@@H](C)[C@H](C)CC[C@]5(C(=O)O)CC[C@@]4(C)[C@]3(C)CC[C@H]2C(C)(C)C1=O = 98%

Please fill in: inhibition of growth at 50 µM reported for C[C@H]1[C@H](C)CC[C@]2(C(=O)O)CC[C@]3(C)C(=CC[C@@H]4[C@@]5(C)C/C(=C\c6ccc7ccccc7c6)C(=O)C(C)(C)[C@@H]5CC[C@]43C)[C@H]12 = 89%

---

Exercise: for every item that follows, state its recorded inhibition of growth at 50 µM.
System: A549
assay.overview: Cytotoxicity against human A549 cells at 50 uM after 48 hrs by MTT assay
Assay type: functional
test.context: A549, 48 h, read-out: GI
Hi! Could you send only the number? It should be in %, unit omitted.

Form field, inhibition of growth at 50 µM with A549, item C[C@H]1[C@H](C)CC[C@]2(C(=O)O)CC[C@]3(C)C(=CC[C@@H]4[C@@]5(C)CC[C@H](O)C(C)(C)[C@@H]5CC[C@]43C)[C@H]12 : 61

Form field, inhibition of growth at 50 µM with A549, item COc1cccc(/C=C2\C[C@]3(C)[C@H]4CC=C5[C@@H]6[C@@H](C)[C@H](C)CC[C@]6(C(=O)O)CC[C@@]5(C)[C@]4(C)CC[C@H]3C(C)(C)C2=O)c1 : 84

Form field, inhibition of growth at 50 µM with A549, item C[C@H]1[C@H](C)CC[C@]2(C(=O)O)CC[C@]3(C)C(=CC[C@@H]4[C@@]5(C)C/C(=C\c6ccc(Cl)cc6)C(=O)C(C)(C)[C@@H]5CC[C@]43C)[C@H]12 : 99

Form field, inhibition of growth at 50 µM with A549, item COc1cc(OC)c(OC)cc1/C=C1\C[C@]2(C)[C@H]3CC=C4[C@@H]5[C@@H](C)[C@H](C)CC[C@]5(C(=O)O)CC[C@@]4(C)[C@]3(C)CC[C@H]2C(C)(C)C1=O : 60

Form field, inhibition of growth at 50 µM with A549, item C[C@H]1[C@H](C)CC[C@]2(C(=O)O)CC[C@]3(C)C(=CC[C@@H]4[C@@]5(C)C/C(=C\c6ccc(O)cc6)C(=O)C(C)(C)[C@@H]5CC[C@]43C)[C@H]12 : 98

Form field, inhibition of growth at 50 µM with A549, item C[C@H]1[C@H](C)CC[C@]2(C(=O)O)CC[C@]3(C)C(=CC[C@@H]4[C@@]5(C)C/C(=C\c6ccc([N+](=O)[O-])cc6)C(=O)C(C)(C)[C@@H]5CC[C@]43C)[C@H]12 : 99

Form field, inhibition of growth at 50 µM with A549, item C[C@H]1[C@H](C)CC[C@]2(C(=O)O)CC[C@]3(C)C(=CC[C@@H]4[C@@]5(C)C/C(=C\c6ccc(Br)cc6)C(=O)C(C)(C)[C@@H]5CC[C@]43C)[C@H]12 : 60
